Source: paper PMC5127184

Let's look at some sequences and their measured remaining at 11 h, 7 μM.
test.protocol: in vitro
Assay type: in vitro ADME, echidna
study.conditions: echidna; 11 h incubation, 37 °C, 7 μM peptide, serum purified by DEAE Affi-Gel Blue, RP-HPLC area under the curve of intact peptide; means ± S.E.M. of three experiments in triplicate
Ends that are not written are not given here.
Answer with a number only, understood to be in %.

sequence_content="HSEGTFTNDVTRLLEEKATSEFIAWLLKGLE [pGLP-1]" data_value=49.4

query: GET /values?readout=remaining at 11 h, 7 μM&item= HFDGVYTDYFSRYLEEKATNEFIDWLLKGQE [eGLP-1]
result: 42.4

###

measurement.target: hGLP-1R (Homo sapiens)
Construct: expressed in transfected cells
test.protocol: Intracellular Ca2+ mobilization, FlpInCHO-hGLP-1R cells
Type: cell-based
Ends that are not written are not given here.
readout.name: pEC50
The value called pEC50 is obtained by taking minus log10 of the concentration in mol/L.

sequence_content="HFDGVYTDYFSRYLEEKATNEFIDWLLKGQE [eGLP-1]" readout_name=pEC50 data_value=5.00

Could you now consider this next sequence?
query: May I ask what pEC50 has been recorded for HSEGTFTNDVTRLLEEKATSEFIAWLLKGLE [pGLP-1] ?
result: 6.50

###

measurement.target: hGLP-1R (Homo sapiens, UniProt P43220)
Construct: expressed in transfected cells
Sequence (P43220 24-463): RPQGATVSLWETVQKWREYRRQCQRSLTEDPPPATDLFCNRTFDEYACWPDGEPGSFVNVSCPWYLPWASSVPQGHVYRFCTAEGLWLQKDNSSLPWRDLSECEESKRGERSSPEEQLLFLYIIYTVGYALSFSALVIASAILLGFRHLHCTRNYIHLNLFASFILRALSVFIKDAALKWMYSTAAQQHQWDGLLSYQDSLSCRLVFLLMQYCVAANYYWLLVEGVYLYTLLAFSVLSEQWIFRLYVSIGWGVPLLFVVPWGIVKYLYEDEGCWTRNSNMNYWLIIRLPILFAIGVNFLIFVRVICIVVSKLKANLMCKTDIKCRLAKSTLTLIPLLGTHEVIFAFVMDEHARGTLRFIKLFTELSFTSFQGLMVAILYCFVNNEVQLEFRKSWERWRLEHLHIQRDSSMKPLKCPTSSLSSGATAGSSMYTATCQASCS
test.protocol: cAMP accumulation, FlpInCHO-hGLP-1R cells
Assay type: cell-based
Ends that are not written are not given here.
Reported EC50 values for a set of sequences
Report the figure in nM without appending any unit label.

sequence_content="HSEGTFTNDVTRLLEEKATSEFIAWLLKGLE [pGLP-1]" data_value=2

query: Need EC50, item HFDGVYTDYFSRYLEEKATNEFIDWLLKGQE [eGLP-1]
result: 126

###

measurement.target: hGLP-1R (Homo sapiens)
Construct: expressed in transfected cells
test.protocol: ERK1/2 phosphorylation, FlpInCHO-hGLP-1R cells
Type: cell-based
Ends that are not written are not given here.
pEC50 values, listed per item
pEC50 is a log-scale quantity: -log10 of the concentration expressed in molar.

sequence_content="HFDGVYTDYFSRYLEEKATNEFIDWLLKGQE [eGLP-1]" measurement_target="hGLP-1R (Homo sapiens)" readout_name=pEC50 data_value=6.10

Next sequence, pEC50 to be filled in.
query: Dear colleague, I am looking for the recorded pEC50 of the following sequence: HSEGTFTNDVTRLLEEKATSEFIAWLLKGLE [pGLP-1]
result: 7.90

###

test.protocol: in vitro
Type: in vitro ADME, platypus
study.conditions: platypus; 11 h incubation, 37 °C, 7 μM peptide, serum purified by DEAE Affi-Gel Blue, RP-HPLC area under the curve of intact peptide; means ± S.E.M. of three experiments in triplicate
Ends that are not written are not given here.
readout.name: remaining at 11 h, 7 μM (%)
Give the value, in units of %, as a plain number.

sequence_content="HFDGVYTDYFSRYLEEKATNEFIDWLLKGQE [eGLP-1]" readout_name="remaining at 11 h, 7 μM" result_units=% data_value=48.3

query: Given HSEGTFTNDVTRLLEEKATSEFIAWLLKGLE [pGLP-1] , state its recorded remaining at 11 h, 7 μM.
result: 55.1
